assay-overview: protein stability index of a GFP-peptide fusion (yeast GPS) (PSI 1-4); higher = more stable; sorted into four equal gates, so the index is relative within each strain
experimental-setup: pdr5∆
measurement-type: protein stability index
// return just the number, without any unit appended

Known results for sequences:
VCFNNLVDENTDYLYRR [YCS4] : 2.56
AYEEEEENEDNDGNNRT [NUT1] : 3.37
EGLIIDTDKLPIKNRTS [SIN4] : 2.85
IRITSLQGDLTFTKKCL [SIR4] : 2.71
GKPSFVFGASDKQAEGT [YOR098C/NUP1] : 3.07

Query: // fetch protein stability index given entry KSLKNNFYRPLLRSVLV [YML103C/NUP188]
Response: 1.87

Query: // fetch protein stability index given entry KIHQQLLFKARLQQQQA [GAL11]
Response: 1.26

Query: // fetch protein stability index given entry DLNKENKLLRRKLMEME [YIL149C/MLP2]
Response: 2.95

Query: // fetch protein stability index given entry TATNSKGEQIAIFPYQD [ECM29]
Response: 2.98
